- assay_comment: logP determination by HPLC on a reversed-phase column (C 18) at pH 2.7
- Type: physicochemical
- condition_details: reversed-phase C18 HPLC column, reversed-phase C 18, pH 2.7, preparation examples, read-out: logP (pH 2.7)
The threshold is 1. Values of chromatographic logP beneath it are tagged TRUE; values meeting or exceeding it are tagged FALSE.

Some solved entries appear below for comparison.
Query: Is 1 strictly greater than the compound's reported chromatographic logP? compound: CC1(C)O[C@@H]2C(=O)N3CCC(=CC[C@H]2O1)c1cc2c(cc1C3)OCO2
Result: FALSE

Query: Note, next up: CC1(C)O[C@@H]2C(=O)N3CCC(=CC[C@H]2O1)c1ccc(F)cc1C3
Result: FALSE

Query: Then what about the compound CC1(C)O[C@@H]2C(=O)N3CCC(O)(C(=O)C[C@H]2O1)c1ccc(F)cc1C3 (some centres unmarked) ?
Result: FALSE

Query: Follow-up item: Cc1ccc2c(c1)C1CCN(C2)C(=O)[C@@H](O)[C@H](O)CC1=O (some centres unmarked)
Result: FALSE

Query: What would you report for CC1(C)O[C@@H]2C(=O)N3CCC(C(=O)C[C@H]2O1)c1ccc(F)cc1C3 (some centres unmarked) ?
Result: FALSE

Query: Now this one: O=C1CCCC=C2CCN1Cc1cc3c(cc12)OCO3
Result: FALSE

Query: Would you kindly repeat that for CC1(C)O[C@@H]2C(=O)N3CCC(O)(C(=O)C[C@H]2O1)c1cc2c(cc1C3)OCO2 (some centres unmarked) ?
Result: FALSE

Query: Would you mind doing Cc1ccc2c(c1)C1=CC[C@H]3OC(C)(C)O[C@@H]3C(=O)N(CC1)C2 as well?
Result: FALSE

Query: Another compound to look at: CC1(C)O[C@@H]2C(=O)N3CCC(C(=O)C[C@H]2O1)c1cc2c(cc1C3)OCO2 (some centres unmarked)
Result: FALSE

Query: Also COc1cc2c(cc1OC)C1=CCCCC(=O)N(CC1)C2 ?
Result: FALSE

New cases:
Query: For this compound, is chromatographic logP lower than 1? O=C1C[C@@H](O)[C@H](O)C(=O)N2CCC1c1cc3c(cc1C2)OCO3 (some centres unmarked)
Result: TRUE

Query: Please give the result for O=C1CCCC(=O)N2CCC1c1cc3c(cc1C2)OCO3 (centres unmarked) too.
Result: FALSE

Query: Next entry: CC1(C)O[C@@H]2C(=O)N3CCC(=CC[C@H]2O1)c1cnccc1C3
Result: TRUE
